measuredTarget: UniProt Q9H3R0
Sequence (Q9H3R0 whole entry): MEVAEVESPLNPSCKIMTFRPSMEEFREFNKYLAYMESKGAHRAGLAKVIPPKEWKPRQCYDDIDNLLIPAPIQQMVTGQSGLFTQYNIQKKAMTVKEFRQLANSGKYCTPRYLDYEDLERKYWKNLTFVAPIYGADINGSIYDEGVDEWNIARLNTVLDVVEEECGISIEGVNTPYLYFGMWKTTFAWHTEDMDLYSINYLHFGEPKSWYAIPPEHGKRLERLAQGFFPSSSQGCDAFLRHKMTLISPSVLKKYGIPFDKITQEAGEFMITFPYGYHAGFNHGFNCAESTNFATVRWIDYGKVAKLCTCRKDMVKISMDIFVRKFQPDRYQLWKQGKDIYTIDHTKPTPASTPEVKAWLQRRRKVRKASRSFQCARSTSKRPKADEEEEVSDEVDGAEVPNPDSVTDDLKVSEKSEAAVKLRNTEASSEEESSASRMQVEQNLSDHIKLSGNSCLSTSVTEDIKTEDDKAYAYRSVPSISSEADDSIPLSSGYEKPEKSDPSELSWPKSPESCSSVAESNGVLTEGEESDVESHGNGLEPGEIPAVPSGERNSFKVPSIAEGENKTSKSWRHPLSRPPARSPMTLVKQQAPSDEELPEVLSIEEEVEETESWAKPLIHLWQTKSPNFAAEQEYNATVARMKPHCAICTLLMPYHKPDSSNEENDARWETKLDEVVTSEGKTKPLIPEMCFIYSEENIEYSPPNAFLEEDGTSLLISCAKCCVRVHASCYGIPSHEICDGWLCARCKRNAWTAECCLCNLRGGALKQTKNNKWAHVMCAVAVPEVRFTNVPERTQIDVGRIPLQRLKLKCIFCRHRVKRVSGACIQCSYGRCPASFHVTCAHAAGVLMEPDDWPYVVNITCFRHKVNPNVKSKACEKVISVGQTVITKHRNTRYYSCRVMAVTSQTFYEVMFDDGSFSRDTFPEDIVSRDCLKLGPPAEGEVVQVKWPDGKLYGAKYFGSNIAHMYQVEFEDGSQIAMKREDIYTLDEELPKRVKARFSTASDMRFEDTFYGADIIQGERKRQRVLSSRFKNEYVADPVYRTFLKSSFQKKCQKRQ
measurementProtocol: Inhibition of N-terminal his-tagged human KDM4C expressed in Escherichia coli BL21(DE3) using trimethylated peptide substrate by RFMS assay
pIC50: −log10 of the molar value.
assayMetric: pIC50

O=c1[nH]c(Oc2cnn(CC3CCCCC3)c2)nc2cnccc12: 6.20
CCNc1nc2cnccc2c(=O)[nH]1: 5.50
O=c1[nH]c(Oc2cnn(Cc3cccnc3)c2)nc2cnccc12: 6.20
O=c1[nH]c(Oc2cnn(-c3ccccc3)c2)nc2cnccc12: 6.40

1. O=c1[nH]c(-c2cncc(F)c2)nc2cnccc12
2. O=c1[nH]c(OCC2CCCCC2)nc2cnccc12
*Q* Looking at 1 and 2 , which one comes out lower in pIC50 terms? I would appreciate it if you answered with the label of your choice.
*A* 2

I. O=c1[nH]c(Oc2ccccc2)nc2cnccc12
II. O=c1ncn(Cc2ccccc2)c2cnccc12
III. O=c1[nH]c(Oc2cn[nH]c2)nc2cnccc12
IV. O=c1[nH]c(Oc2cccc(O)c2)nc2cnccc12
V. O=c1[nH]c(-c2cccnc2)nc2cnccc12
*Q* Arrange the 5 entries by pIC50 so the values rise. Note for the reader: the ranking is given by listing the labels in the order requested.
*A* II, V, I, III, IV

1. O=c1[nH]c(Oc2cccnc2)nc2cnccc12
2. CCSc1nc2cnccc2c(=O)[nH]1
*Q* Looking at 1 and 2 , which one comes out lower in pIC50 terms? I would appreciate it if you answered with the label of your choice.
*A* 2

---

measuredTarget: Lysine-specific demethylase 4E (Homo sapiens)
Sequence (B2RXH2 whole entry): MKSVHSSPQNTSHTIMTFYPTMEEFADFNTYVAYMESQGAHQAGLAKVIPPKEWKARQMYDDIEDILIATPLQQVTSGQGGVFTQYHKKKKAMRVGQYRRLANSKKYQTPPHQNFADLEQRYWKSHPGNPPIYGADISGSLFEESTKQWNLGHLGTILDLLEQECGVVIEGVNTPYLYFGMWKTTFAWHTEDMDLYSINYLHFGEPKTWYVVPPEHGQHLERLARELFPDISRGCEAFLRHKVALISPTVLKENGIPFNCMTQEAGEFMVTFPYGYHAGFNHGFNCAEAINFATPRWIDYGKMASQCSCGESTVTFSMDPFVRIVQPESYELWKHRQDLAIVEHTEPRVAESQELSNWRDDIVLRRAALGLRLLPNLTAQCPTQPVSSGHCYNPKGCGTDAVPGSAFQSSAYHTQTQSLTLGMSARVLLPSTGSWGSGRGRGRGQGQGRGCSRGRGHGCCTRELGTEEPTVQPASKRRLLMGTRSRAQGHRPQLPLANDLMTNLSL
pIC50: −log10 of the molar value.
assayMetric: pIC50

O=c1[nH]c(Oc2cnn(Cc3ccccc3)c2)nc2cnccc12: 6.30

1. CC(C)c1ccc(Oc2nc3cnccc3c(=O)[nH]2)cn1
2. Nc1cnccc1C(=O)O
*Q* Which value of pIC50 is greater, the one for 1 or the one for 2 ? I would appreciate it if you answered with the label of your choice.
*A* 1
(1: 6.40, 2: 5.90)

---

measurementProtocol: physchem
condition: buffer, pH 7.4
assayMetric: logD

CC(C)c1ccc(Oc2nc3cnccc3c(=O)[nH]2)cn1: 1.5
O=c1[nH]c(Oc2cnn(-c3ccccc3)c2)nc2cnccc12: 1.9

P. CC(C)n1cc(Oc2nc3cnccc3c(=O)[nH]2)cn1
Q. Cc1nn(C)cc1Oc1nc2cnccc2c(=O)[nH]1
*Q* Which value of logD is greater, the one for P or the one for Q ? I would appreciate it if you answered with the label of your choice.
*A* P
(P: 0.7, Q: 0)
